Assay details: growth inhibition of WT strain, primary screen, mitochondrial fusion inhibitor project, WT and mutant strains, chemical genetic (AID 1362)
Stated conditions: mitochondrial fusion phenotypic screen, WT strain, growth inhibition; at 10 µM; stronger effect = higher value
The campaign covered roughly 190,000 compounds. About 4,000 (2.1%) were called active. Many of the other results were omitted from the sample, so actives are more common in it than they were.
Record Met whenever inhibition is at 20% or higher; record Not met when lower.

See these solved cases before continuing.
>>> cat("Cc1cc(/C=N/NC(=O)c2cccnc2)c(C)n1CC(C)C")
"Not met"
>>> cat("CCC(C)(C)NC(=O)CN(C(=O)C(=O)Nc1ccc2c(c1)OCCO2)C(C)(C)CC")
"Not met"
>>> cat("CCO[C@H]1OC(C(=O)N2CCCCCCC2)=C[C@@H](c2ccc(C(F)(F)F)cc2)[C@@H]1CCCO")
"Not met"
>>> cat("Cc1ccc(C2=Nc3c(ccc4ccccc34)C(c3ccncc3)=NN2)cc1")
"Met"
>>> cat("CCc1ccc2c(c1)C(c1ccc([N+](=O)[O-])cc1)=NNC(c1ccccc1)=N2")
"Not met"
>>> cat("O=C(COC(=O)c1c2c(nc3ccccc13)/C(=C\\c1cccs1)CCC2)Nc1ccccc1Cl")
"Not met"

Challenge: Is the recorded value of inhibition equal to or greater than 20% for this molecule? `N#CCCN(CCC#N)c1nnc(-c2ccccc2)s1`
Response given: Met

Challenge: Is the recorded value of inhibition equal to or greater than 20% for this molecule? `CCOC(=O)c1cc2cc(-c3c(C(=O)OCC)oc4cc(O)cc(O)c4c3=O)ccc2o1`
Response given: Not met

Challenge: Is the recorded value of inhibition equal to or greater than 20% for this molecule? `Cc1ccc(OCc2n[nH]c(=S)n2-c2ccc(C)cc2)cc1`
Response given: Met

---

Assay details: growth inhibition of WT strain, primary screen, mitochondrial fusion inhibitor project, WT and mutant strains, chemical genetic (AID 1362)
Stated conditions: mitochondrial fusion phenotypic screen, mutant strain inhibition; at 10 µM
Screen size: about 190,000 compounds; about 4,000 (2.1%) were called active. Only a selection was taken, and actives are over-represented in it overall.
The compounds listed here are annotated with their inhibition.
// note: answer is a bare numeric in %

# count of solved cases: 4
>>> observed_measurement("COc1ccc(CS(=O)/C(Cl)=C(/Cl)C(=O)Nc2ccc(OC)nc2)cc1 (configuration not stated)")
83.5
>>> observed_measurement("O=C(N/N=C/c1ccccn1)c1ccc(S(=O)(=O)N2CCCCCC2)cc1")
0.85
>>> observed_measurement("CC(C)C(=O)NCc1cc(-c2ccc(Cl)cc2)no1")
-1.57
>>> observed_measurement("Cc1ccc(OCC(=O)N/N=C\\c2ccco2)c(C)c1")
16.3

Now turn to the next compound.
Challenge: Using the record for `C=CCn1c(-c2ccc3[nH]c(C)c(C)c3c2)n[nH]c1=S` , report its inhibition.
Response given: 0.81

---

Assay details: growth inhibition of WT strain, primary screen, mitochondrial fusion inhibitor project, WT and mutant strains, chemical genetic (AID 1362)
Stated conditions: mitochondrial fusion phenotypic screen, mutant strain inhibition; at 10 µM
The campaign covered roughly 190,000 compounds. About 4,000 (2.1%) were called active. The sample holds actives, similar compounds and a random draw of the others, so the mix is not that of the screen.
Measured parameter: inhibition (%)
// note: answer is a bare numeric in %

# count of solved cases: 4
>>> observed_measurement("CCN(CC)CCN(C(=O)c1ccc(N2C(=O)CCC2=O)cc1)c1nc2cc3c(cc2s1)OCO3")
-0.18
>>> observed_measurement("O=C(c1ccc(Cl)c([N+](=O)[O-])c1)N1CCN(c2ccccc2)CC1")
70.4
>>> observed_measurement("O=S(=O)(NCCOc1cccc2cccnc12)c1ccc(F)cc1")
5.48
>>> observed_measurement("CO/N=C/c1ccc(N2CCN(C(=O)c3cccc(Cl)c3)CC2)c([N+](=O)[O-])c1")
22.2

Now turn to the next molecule.
Challenge: Using the record for `Cc1ccc(OCC(=O)Nc2ccc(S(=O)(=O)Nc3ccccn3)cc2)cc1` , report its inhibition.
Response given: -9.5

---

Assay details: growth inhibition of WT strain, primary screen, mitochondrial fusion inhibitor project, WT and mutant strains, chemical genetic (AID 1362)
Stated conditions: mitochondrial fusion phenotypic screen, WT strain, growth inhibition; at 10 µM
Hit rate of the full screen: of about 190,000 compounds, about 4,000 (2.1%) were called active. No stated cut-off is given here; in the data, active means inhibition above about 58%; inactive means the rest, inconclusive results apart; tested in S. cerevisiae. Only a selection was taken, and actives are over-represented in it overall.
Please state which outcome applies, choosing from yes (1) = active, no (0) = inactive

See these solved cases before continuing.
>>> cat("Cc1ccsc1C(=O)N/N=C/c1ccc([N+](=O)[O-])cc1")
"no (0)"
>>> cat("CCC(=O)c1ccc(N2CCN(C(=O)c3cc([N+](=O)[O-])ccc3F)CC2)c(F)c1")
"no (0)"
>>> cat("CN(c1ccccc1)S(=O)(=O)c1cc(C(=O)OCC(=O)N2CCN(C(=O)c3ccco3)CC2)ccc1Cl")
"no (0)"

Challenge: GET /call?item= `O=C(Cn1c(N2CCN(C/C=C/c3ccccc3)CC2)nc2ccccc21)c1ccccc1` returns the recorded outcome of this test.
Response given: no (0)

Challenge: GET /call?item= `S=C(c1ccc(-c2ccccc2)o1)N1CCCCC1` returns the recorded outcome of this test.
Response given: no (0)

Challenge: GET /call?item= O=C(c1ccc(C(F)(F)F)cc1)C1CCCN(C(=O)c2csnn2)C1 (stereo not drawn) returns the recorded outcome of this test.
Response given: no (0)

Challenge: GET /call?item= `O=C(CCn1ccc([N+](=O)[O-])n1)Nc1nccs1` returns the recorded outcome of this test.
Response given: no (0)

---

Assay details: growth inhibition of WT strain, primary screen, mitochondrial fusion inhibitor project, WT and mutant strains, chemical genetic (AID 1362)
Stated conditions: mitochondrial fusion phenotypic screen, WT strain, growth inhibition; at 10 µM
About 4,000 (2.1%) of roughly 190,000 compounds were called active. Rule as the data show it: active = inhibition above about 58%; inactive = the rest, inconclusive results apart; tested in S. cerevisiae. The list comes from a sample in which actives are over-represented; it also holds close analogues and randomly drawn compounds.
Please state which outcome applies, choosing from yes (1) (active), no (0) (inactive)

See these solved cases before continuing.
>>> cat("Cc1csc(Nc2ccc(Cl)cc2)[n+]1-c1ccc(Cl)cc1")
"yes (1)"
>>> cat("CCNC(=S)NNC(=O)C1CCN(Cc2ccccc2)CC1")
"no (0)"
>>> cat("CCCC(=O)Nc1nnc(-c2ccccc2)o1")
"no (0)"
>>> cat("CN(C)CCCN(C(=O)COc1ccccc1)c1nc2c(Cl)cccc2s1")
"no (0)"
>>> cat("CCc1ccccc1N1C(=O)C2C3CC(=O)C(c4ccccc43)C2C1=O (stereo not drawn)")
"no (0)"
>>> cat("O=C(Nc1ccc(Cl)cn1)Nc1cccs1")
"no (0)"

Challenge: GET /call?item= `CC(=O)N/N=C(\C)c1ccc(Br)cc1Br` returns the recorded outcome of this test.
Response given: no (0)

Challenge: GET /call?item= `CN(C)c1ccc(/C=N/Nc2cc(N3CCOCC3)nc(N3CCOCC3)n2)cc1` returns the recorded outcome of this test.
Response given: no (0)

Challenge: GET /call?item= COc1ccc(CN2CCCC(C(=O)c3ccc(Cl)cc3)C2)cc1Cn1cncn1 (stereo not drawn) returns the recorded outcome of this test.
Response given: no (0)

---

Assay details: growth inhibition of WT strain, primary screen, mitochondrial fusion inhibitor project, WT and mutant strains, chemical genetic (AID 1362)
Stated conditions: mitochondrial fusion phenotypic screen, mutant strain inhibition; at 10 µM
About 4,000 (2.1%) of roughly 190,000 compounds were called active. The entries come from a sample that favours actives as a whole.
Measured parameter: inhibition (%)
// note: answer is a bare numeric in %

# count of solved cases: 5
>>> observed_measurement("COc1ccccc1NC(=O)C1=C(C)Nc2nnnn2C1c1cccc(Br)c1 (stereo not drawn)")
-7.01
>>> observed_measurement("CCOc1ccccc1NC(=O)Nc1cc(OC)ccc1OC")
11.2
>>> observed_measurement("Cc1cc(C)n2nc(SCC(=O)NC(=O)NCc3ccco3)nc2n1")
10.4
>>> observed_measurement("Cc1ccc(S(=O)(=O)Cc2cc(-c3ccc(Cl)cc3)no2)cc1")
12.1
>>> observed_measurement("COc1ccc(OC)c(Cc2nnc(CCC(=O)NC3CCCC3)o2)c1")
1.25

Challenge: Using the record for `COc1ccc(C(=O)CN(C(=O)c2ccc(Cl)cc2)N2C(=O)c3ccccc3C2=O)cc1` , report its inhibition.
Response given: 27.8

Challenge: Using the record for O=C(Nc1cccc(F)c1)N1C2CCC1CC(O)(c1cccnc1)C2 (stereo not drawn) , report its inhibition.
Response given: -8.29

Challenge: Using the record for CC(NCc1nc2ccccc2n1C)C12CC3CC(CC(C3)C1)C2 (stereo not drawn) , report its inhibition.
Response given: 16.6

Challenge: Using the record for CC(=O)NC1C(Oc2ccc(C=O)cc2)OC(COC(C)=O)C(OC(C)=O)C1OC(C)=O (stereo not drawn) , report its inhibition.
Response given: -11.4

Challenge: Using the record for `Cc1ccc(C)c(NC(=S)NNC(=S)Nc2ccc(C(C)C)cc2)c1` , report its inhibition.
Response given: 24.5

Challenge: Using the record for `CC(C)(C)OC(=O)N/N=C/c1cn(-c2ccccc2)nc1-c1cccnc1` , report its inhibition.
Response given: -1.71

Challenge: Using the record for COC(=O)C1=C(C(=O)c2ccc(C)cc2)C(c2ccccc2)n2nnnc2N1 (stereo not drawn) , report its inhibition.
Response given: 4.37

Challenge: Using the record for `CCOC(=O)Cc1csc(NC(=O)CSc2ccc(Br)cc2)n1` , report its inhibition.
Response given: 25.6

Challenge: Using the record for `Cc1cc(C)cc(OCC(=O)NCc2cc(C)nc3ccccc23)c1` , report its inhibition.
Response given: 3.06

Challenge: Using the record for `COc1ccc(-c2nn(-c3ccccc3)cc2C(=O)Nc2nccs2)cc1OC` , report its inhibition.
Response given: -2.08

Challenge: Using the record for O=C1c2ccccc2NC(c2ccccn2)N1NS(=O)(=O)c1ccccc1 (stereo not drawn) , report its inhibition.
Response given: -14.2

Challenge: Using the record for `CCOC(=O)c1ccc[n+](CC(=O)Nc2ccccc2OC(F)F)c1` , report its inhibition.
Response given: -5.87

Challenge: Using the record for `O=C(NC(=S)Nc1cccc(-c2ccc(CO)o2)c1)c1cccs1` , report its inhibition.
Response given: 12.3

Challenge: Using the record for Cc1cc2c(cc1C)[n+](C)cn2CC(O)COCC1CC=CCC1 (stereo not drawn) , report its inhibition.
Response given: -7.37

Challenge: Using the record for CCOC(=O)Cc1csc(SCC(=O)NC(C)C23CC4CC(CC(C4)C2)C3)n1 (stereo not drawn) , report its inhibition.
Response given: 26.1

Challenge: Using the record for `COc1ccc(Cn2c(-c3ccc(Cl)cc3)c[n+]3ccccc23)cc1` , report its inhibition.
Response given: 49.9

Challenge: Using the record for `COc1ccc(Cn2c(=O)cc(C)[nH]c2=S)cc1` , report its inhibition.
Response given: -20.1

Challenge: Using the record for `CCOc1ccccc1Oc1cn[nH]c1-c1ccc(OC)cc1O` , report its inhibition.
Response given: 25.6
